Give measured kon for each item. Keep answers brief.
tgt: T1, monovalent hVISTA-ECD (human VISTA extracellular domain with His tail) (human, UniProt Q9H7M9 33-193)
T1 construct: analyte flowed over captured antibody; also called huVISTA-His
protocolNotes: SPR, pH 6.0
All answers are understood in M⁻¹ s⁻¹, so give the number only.

# input GET /values?readout=kon&item= P1-065326 (41F11_VH_D31E/Y50W/S55E/L96E/Y100E VK_A64G) (antibody, V domains shown, Kabat positions; also called P1-065326-1) VH: QVQLVESGGGLVKPGGSLRLSCAASGFTFSEYYMSWIRQAPGKGLEWVSWISNSGEPIYYADSVKGRFTISRDNAKNSLYLQMNSLRAEDTAVYYCARDEPGWEFDLWGRGTLVTVSS VL: EIVLTQSPATLSLSPGERATLSCRASQSVSSYLAWYQQKPGQAPRLLIYDASNRATGIPARFSGSGSGTDFTLTISSLEPEDFAVYYCQQRNNWPRTFGQGTKVEIK
# output 3.52e+06

# input GET /values?readout=kon&item= P1-061528 (41F11 NGS mut VK_A64G/R91A) (antibody, V domains shown, also called P1-061528-2) VH: QVQLVESGGGLVKPGGSLRLSCAASGFTFSDYYMSWIRQAPGKGLEWVSYISNSGSPIYYADSVKGRFTISRDNAKNSLYLQMNSLRAEDTAVYYCARDLPGWYFDLWGRGTLVTVSS VL: EIVLTQSPATLSLSPGERATLSCRASQSVSSYLAWYQQKPGQAPRLLIYDASNRATGIPARFSGSGSGTDFTLTISSLEPEDFAVYYCQQANNWPRTFGQGTKVEIK
# output 616000

# input GET /values?readout=kon&item= P1-064500 (41F11_Vk_Q90DA64G) (antibody, V domains shown, also called P1-064500-1) VH: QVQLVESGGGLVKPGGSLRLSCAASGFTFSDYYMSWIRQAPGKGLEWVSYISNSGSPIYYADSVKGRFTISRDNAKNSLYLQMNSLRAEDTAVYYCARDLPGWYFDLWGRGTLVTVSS VL: EIVLTQSPATLSLSPGERATLSCRASQSVSSYLAWYQQKPGQAPRLLIYDASNRATGIPARFSGSGSGTDFTLTISSLEPEDFAVYYCQDRNNWPRTFGQGTKVEIK
# output 1.67e+06

# input GET /values?readout=kon&item= P1-065312 (41F11_VH_F27E VK_A64G) (antibody, V domains shown, Kabat positions; also called P1-065312-1) VH: QVQLVESGGGLVKPGGSLRLSCAASGETFSDYYMSWIRQAPGKGLEWVSYISNSGSPIYYADSVKGRFTISRDNAKNSLYLQMNSLRAEDTAVYYCARDLPGWYFDLWGRGTLVTVSS VL: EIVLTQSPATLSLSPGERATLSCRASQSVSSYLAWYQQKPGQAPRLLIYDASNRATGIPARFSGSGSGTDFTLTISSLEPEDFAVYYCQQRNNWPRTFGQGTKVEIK
# output 2.01e+06

# input GET /values?readout=kon&item= P1-064510 (41F11_Vk_A25E/V29D/A64G/R91T) (antibody, V domains shown, also called P1-064510-1) VH: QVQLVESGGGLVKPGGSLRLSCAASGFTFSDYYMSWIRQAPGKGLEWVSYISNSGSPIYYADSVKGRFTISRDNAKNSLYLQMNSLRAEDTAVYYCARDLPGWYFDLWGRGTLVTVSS VL: EIVLTQSPATLSLSPGERATLSCRESQSDSSYLAWYQQKPGQAPRLLIYDASNRATGIPARFSGSGSGTDFTLTISSLEPEDFAVYYCQQTNNWPRTFGQGTKVEIK
# output 1.24e+06
